The values you see were collected from patent US11202792B2.

Molecular target: recombinant human full-length CD99 (Homo sapiens)
Construct: Purified recombinant human full-length CD99 produced in HEK293 cells was purchased from Origene
Sequence (P14209 23-185): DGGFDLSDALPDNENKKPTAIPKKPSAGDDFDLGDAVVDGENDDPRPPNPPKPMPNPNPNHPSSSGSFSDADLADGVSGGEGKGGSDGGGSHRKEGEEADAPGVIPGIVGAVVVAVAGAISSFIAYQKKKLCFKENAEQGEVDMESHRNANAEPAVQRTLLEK
Experiment: SPR binding kinetics, recombinant human full-length CD99 (Biacore T200)
Conditions: full-length CD99 produced in HEK293 cells, immobilized by amine coupling
pKd: −log10 of the molar value.
READOUT: pKd

>>> measured_number("Nc1nc(Cl)nc2c1ncn2[C@H]1C[C@H](O)[C@@H](CO)O1")
5.42
>>> measured_number("Nc1nc(Cl)nc2c1ncn2[C@@H]1O[C@H](CO)[C@@H](O)[C@@H]1F")
5.28
